experimental.system: Ubiquitin carboxyl-terminal hydrolase 1 (Homo sapiens)
test.method.notes: Inhibitors of USP1/UAF1: SAR in Primary Assay
test.parameters: Recombinant USP1/UAF1, Ub-Rhodamine cleavage fluorescence; series mostly up to 57.1 µM
Results filed as inconclusive are left out. The source made the active and inactive calls. Calls come from the whole dose curve; as a rule, active = well fitted inhibition curve with a large enough effect; inconclusive = small, poorly fitted or top-dose-only effect; inactive = flat fitted curve, though single readings scatter.
Hi! Could you answer with just one of these? 1 for active, -1 for inactive

Take a look at these entries with their results.
sample.smiles | cat
N#Cc1cccc(-c2ccc(CNc3nc(-c4ccccc4C(F)(F)F)nc4ccccc34)cc2)c1 | 1
Cc1ccccc1-c1nc(NCc2ccc(-c3cccnc3)cc2)c2ccccc2n1 | 1
Cc1cnc(-c2ccccc2C(C)C)nc1NCC1CCN(c2cccnc2)CC1 | 1
Fc1cnc(-c2ccccc2C(F)F)nc1NCc1ccc(-c2cccnc2)cc1 | 1

INPUT: For Nc1nc(NCc2ccc(-c3cccnc3)cc2)c2ccccc2n1 , what call appears in the results of this test?
OUTPUT: -1

---

experimental.system: Ubiquitin carboxyl-terminal hydrolase 1 (Homo sapiens) (UniProt O94782)
Sequence (O94782 whole entry, looked up): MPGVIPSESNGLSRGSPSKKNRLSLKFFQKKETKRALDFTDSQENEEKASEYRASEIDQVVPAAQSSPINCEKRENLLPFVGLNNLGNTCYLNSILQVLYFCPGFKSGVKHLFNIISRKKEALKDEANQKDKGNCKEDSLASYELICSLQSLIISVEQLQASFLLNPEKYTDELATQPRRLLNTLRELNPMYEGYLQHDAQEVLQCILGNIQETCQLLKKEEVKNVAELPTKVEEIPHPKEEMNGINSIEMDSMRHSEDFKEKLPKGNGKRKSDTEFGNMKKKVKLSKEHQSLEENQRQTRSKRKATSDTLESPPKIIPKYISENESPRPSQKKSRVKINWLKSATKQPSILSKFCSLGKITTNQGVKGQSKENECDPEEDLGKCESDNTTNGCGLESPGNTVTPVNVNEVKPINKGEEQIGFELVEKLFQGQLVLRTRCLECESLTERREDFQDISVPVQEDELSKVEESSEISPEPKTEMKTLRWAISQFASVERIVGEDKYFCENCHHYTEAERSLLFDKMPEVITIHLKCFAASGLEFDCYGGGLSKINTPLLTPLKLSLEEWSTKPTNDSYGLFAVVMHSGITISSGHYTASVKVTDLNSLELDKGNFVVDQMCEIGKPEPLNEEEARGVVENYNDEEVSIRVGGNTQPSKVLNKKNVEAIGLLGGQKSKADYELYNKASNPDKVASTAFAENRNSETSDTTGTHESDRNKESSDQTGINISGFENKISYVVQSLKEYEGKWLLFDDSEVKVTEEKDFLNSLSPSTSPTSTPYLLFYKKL
test.method.notes: Inhibitors of USP1/UAF1: SAR in Primary Assay
test.parameters: Recombinant USP1/UAF1, Ub-Rhodamine cleavage fluorescence; series mostly up to 57.1 µM
Results filed as inconclusive are left out. The source made the active and inactive calls. Calls follow the shape of the dose curve; as a rule, active = well fitted inhibition curve with a large enough effect; inconclusive = small, poorly fitted or top-dose-only effect; inactive = flat fitted curve, though single readings scatter.
Give your call using only these classes: T = active, F = inactive

molecule | cat
FC(F)(F)c1ccccc1-c1nc(NCc2ccc(-c3cccnc3)cc2)c2[nH]cnc2n1 | T
CC(C)c1ccccc1-c1nc2c(c(NCc3ccc(-c4cccnc4)cc3)n1)CCC2 | T
FC(F)(F)c1cc(-c2ccc(CNc3nc(-c4ccncc4)nc4ccccc34)cc2)ccn1 | T

INPUT: Can you look up the reported call for c1cncc(-c2ccc(CNc3nc(N4CCOCC4)nc4ccccc34)cc2)c1 for me?
OUTPUT: F

INPUT: Record request — test call for Cc1cnc(-c2ccccc2C(C)O)nc1NCC1CCN(c2cccnc2)CC1 (stereo not given)
OUTPUT: T
